# System: ATP;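 also: ATP exposure 15 min at 22 °C before imaging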
# ASSAY_OVERVIEW: switch fluorescence ratio, 500 uM ATP over buffer (Cy3 cluster intensity, sum of 5 cycles each) (fold (ratio)); higher = stronger signal-on switching upon ATP binding; sequences stand for … in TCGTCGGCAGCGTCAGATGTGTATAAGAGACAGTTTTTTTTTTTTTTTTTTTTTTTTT…TC
# DETAILS: aptamer strand: ATP DNA aptamer (quencher-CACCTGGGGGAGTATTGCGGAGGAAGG + anchor), 100 nM annealed; ATP concentration: 500 uM
METRIC: switch fluorescence ratio
Provide a numeric answer; units are not to be included.

Examples from the recorded data:
Query the reported switch fluorescence ratio for ATP; item: "GAATGGATGT"
1

What measured switch fluorescence ratio is associated with "TTGTTTGTCC" on ATP?
1.03

Value wanted: switch fluorescence ratio (ATP) of entry "GATAGTTTGT"
1

Item: "GCGGAAAAAG" Test system: ATP Read-out: switch fluorescence ratio Value: ?;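 also: ATP exposure 15 min at 22 °C before imaging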
0.957

Find switch fluorescence ratio (ATP) for the entry "AAACGGGTAG"
1.07

Others:
switch fluorescence ratio of "ACGATGAACG" on ATP?
1.04

Param readout = switch fluorescence ratio; param system = ATP; param query = "TTATATTAGT" ; response: value;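 also: ATP exposure 15 min at 22 °C before imaging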
0.992

// lookup switch fluorescence ratio | system=ATP | key= "GTTGTTAGGG"
1

API: value(readout= switch fluorescence ratio, system= ATP, query= "CAATATGTAT" );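 also: ATP exposure 15 min at 22 °C before imaging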
0.997

Field: switch fluorescence ratio (ATP). Entry: "CGTGGTGGGG"
0.992

Query for ATP: what switch fluorescence ratio does the record show for "TGGTGCATGG" ?
1.03

API: value(readout= switch fluorescence ratio, system= ATP, query= "GGGCATGCGT" );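 also: ATP exposure 15 min at 22 °C before imaging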
0.973

Which switch fluorescence ratio is reported with ATP for this entry: "GGGGTAGAAG" ?
1

// fetch ATP switch fluorescence ratio for "ATCATACACT"
1.06

Query switch fluorescence ratio on ATP for "CGGGTTTTGG"
1.01

Look up switch fluorescence ratio with ATP for this sequence: "GGGTTGGACG"
1.02

Write down the reported switch fluorescence ratio of "TTTTTATGCA" , test system: ATP.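 Also: ATP exposure 15 min at 22 °C before imaging.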
1.02

Request - read-out switch fluorescence ratio | tested on ATP | sequence "CAGCATGGGG"
1.03

Lookup: switch fluorescence ratio / ATP / "CGGGGCCTAG"
1.01
